# Tested on: Torulopsis sp. Strain A1 (NRRLY-11,419)
# experiment: Oxidation of sec-alcohols to ketones by cell suspensions of yeasts
# Format: cell-based
# condition-description: growth substrate Methanol; sec-alcohol to methyl ketone
compounds and their reported Conversion Rate
measured-property: Conversion Rate

CC(C)O | 4.5 μmoles/hr/mg of protein
CCC(C)O (stereo not shown) | 4.9 μmoles/hr/mg of protein
CCCCC(C)O (stereo not shown) | 0.21 μmoles/hr/mg of protein
CCCC(C)O (stereo not shown) | 1.0 μmoles/hr/mg of protein

###

# System: Hansenula polymorpha ATCC 26012
# experiment: Oxidation of sec-alcohols to ketones by cell suspensions of yeasts
# Assay type: cell-based
# condition-description: growth substrate Propylamine; sec-alcohol to methyl ketone
compounds and their reported Conversion Rate
measured-property: Conversion Rate

CCCCC(C)O (stereo not shown) [2-Hexanol] | 0.48 μmoles/hr/mg of protein
CCCC(C)O (stereo not shown) [2-Pentanol] | 0.82 μmoles/hr/mg of protein
CC(C)O [Isopropanol] | 4.1 μmoles/hr/mg of protein
CCC(C)O (stereo not shown) [2-Butanol] | 4.0 μmoles/hr/mg of protein

###

# Test system: Candida utilis ATCC 26387
# experiment: Oxidation of sec-alcohols to ketones by cell suspensions of yeasts
# Format: cell-based
# condition-description: growth substrate Propylamine; sec-alcohol to methyl ketone
measured-property: Conversion Rate

CCCC(C)O (stereo not shown) | 0.9 μmoles/hr/mg of protein
CCC(C)O (stereo not shown) | 4.2 μmoles/hr/mg of protein
CC(C)O | 4.2 μmoles/hr/mg of protein
CCCCC(C)O (stereo not shown) | 0.52 μmoles/hr/mg of protein

###

compounds and their reported Rate of Product Formation
# target-entity: cell fractions of Methylosinus sp. (CRL-15, NRRL B-11,202) (Methylosinus trichosporium, UniProt Q50541+Q9KX50+Q9KX51)
# Sequence (Q9KX50 40-431): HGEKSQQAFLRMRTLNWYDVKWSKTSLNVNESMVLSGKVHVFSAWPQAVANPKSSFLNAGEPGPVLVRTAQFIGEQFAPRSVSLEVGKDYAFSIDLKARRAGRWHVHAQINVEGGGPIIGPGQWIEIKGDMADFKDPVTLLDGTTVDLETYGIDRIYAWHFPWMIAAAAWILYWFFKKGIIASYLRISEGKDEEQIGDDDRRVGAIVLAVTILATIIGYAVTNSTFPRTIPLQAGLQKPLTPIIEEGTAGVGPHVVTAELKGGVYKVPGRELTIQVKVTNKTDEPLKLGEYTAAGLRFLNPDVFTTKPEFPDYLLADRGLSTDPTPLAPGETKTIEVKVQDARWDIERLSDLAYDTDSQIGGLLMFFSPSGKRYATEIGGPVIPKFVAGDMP
# Sequence (Q50541 1-252): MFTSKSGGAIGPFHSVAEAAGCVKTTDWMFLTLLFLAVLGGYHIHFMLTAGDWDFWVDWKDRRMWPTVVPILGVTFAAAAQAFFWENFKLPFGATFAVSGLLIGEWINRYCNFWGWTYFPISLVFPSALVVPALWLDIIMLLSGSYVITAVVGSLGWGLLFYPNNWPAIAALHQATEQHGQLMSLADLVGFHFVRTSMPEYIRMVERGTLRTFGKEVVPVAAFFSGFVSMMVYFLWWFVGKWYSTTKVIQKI
# Sequence (Q9KX51 1-256): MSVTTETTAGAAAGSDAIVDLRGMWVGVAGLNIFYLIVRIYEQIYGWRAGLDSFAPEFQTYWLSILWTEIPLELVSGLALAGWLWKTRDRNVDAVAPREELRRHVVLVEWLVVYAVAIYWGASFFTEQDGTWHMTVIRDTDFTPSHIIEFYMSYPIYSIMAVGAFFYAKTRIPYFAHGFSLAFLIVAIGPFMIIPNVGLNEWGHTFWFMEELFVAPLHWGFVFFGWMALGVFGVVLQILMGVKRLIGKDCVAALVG
# experiment: Oxidation by cell fractions P(40), P(80), S(80)
# Assay type: biochemical
# condition-description: P(40) particulate fraction; alkene to epoxide, alkane to alcohol; 30° C.
measured-property: Rate of Product Formation

C=CC=C | 0.63 μ moles/hr/mg of protein
C=CC | 4.1 μ moles/hr/mg of protein
CC | 3.2 μ moles/hr/mg of protein
C | 4.8 μ moles/hr/mg of protein
C=CCCC | 0 μ moles/hr/mg of protein

###

compounds and their reported Conversion Rate
# Tested on: Candida utilis ATCC 26387
# experiment: Oxidation of sec-alcohols to ketones by cell suspensions of yeasts
# Format: cell-based
# condition-description: growth substrate Methanol; sec-alcohol to methyl ketone
measured-property: Conversion Rate

CCCCC(C)O (stereo not shown) | 0.8 μmoles/hr/mg of protein
CCC(C)O (stereo not shown) | 6.8 μmoles/hr/mg of protein
CCCC(C)O (stereo not shown) | 1.5 μmoles/hr/mg of protein
CC(C)O | 6.2 μmoles/hr/mg of protein

###

# System: P(40) particulate fraction of Methylosinus sp. (CRL-15, NRRL B-11,202)
# experiment: Effect of inhibitors on propylene epoxidation and methane hydroxylation
# Format: biochemical
# condition-description: inhibitor 10^-3 M; P(40) fraction
molecules and their reported % Inhibition, Propylene-Epoxidizing Activity
measured-property: % Inhibition, Propylene-Epoxidizing Activity (%)

NNC(N)=S [Thiosemicarbazide] | 97
NC(N)=S [Thiourea] | 98
Oc1cccc2cccnc12 [8-Hydroxyquinoline] | 75
c1ccc(-c2ccccn2)nc1 [α,α-Bipyridyl] | 98
c1cnc2c(c1)ccc1cccnc12 [1,10-Phenanthroline] | 93
